Reference source for all entries: patent US20250320281A1

Listing: IC50 (µg/mL), pseudovirus neutralization of selected binders
molecular target: HIV-1 Env of isolate 94UG103 (pseudovirus) (HIV-1); assay: cell-based or functional assay
Your answer is read as µg/mL, so omit the unit and give the number.

PGT-127 (5145_B14) (antibody, V domains shown) VH: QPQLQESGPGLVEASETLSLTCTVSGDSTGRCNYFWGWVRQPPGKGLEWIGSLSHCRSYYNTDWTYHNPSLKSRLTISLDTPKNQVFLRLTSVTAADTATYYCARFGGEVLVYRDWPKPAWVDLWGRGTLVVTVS VL: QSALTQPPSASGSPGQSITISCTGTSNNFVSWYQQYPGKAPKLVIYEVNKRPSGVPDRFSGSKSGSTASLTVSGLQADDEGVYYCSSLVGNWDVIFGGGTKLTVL :: 0.017
PGT-123 (4858_P08) (antibody, V domains shown) VH: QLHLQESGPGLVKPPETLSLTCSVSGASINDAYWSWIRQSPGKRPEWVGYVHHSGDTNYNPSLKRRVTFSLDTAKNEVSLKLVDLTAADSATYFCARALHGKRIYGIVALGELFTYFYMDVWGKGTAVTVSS VL: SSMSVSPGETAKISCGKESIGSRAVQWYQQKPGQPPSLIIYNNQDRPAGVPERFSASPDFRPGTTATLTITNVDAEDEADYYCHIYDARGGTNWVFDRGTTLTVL :: 0.678
PGT-126 (5141_B17) (antibody, V domains shown) VH: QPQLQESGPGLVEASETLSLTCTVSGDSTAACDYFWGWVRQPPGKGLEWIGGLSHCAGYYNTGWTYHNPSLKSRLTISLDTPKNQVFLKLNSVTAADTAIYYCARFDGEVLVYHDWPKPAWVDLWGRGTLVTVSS VL: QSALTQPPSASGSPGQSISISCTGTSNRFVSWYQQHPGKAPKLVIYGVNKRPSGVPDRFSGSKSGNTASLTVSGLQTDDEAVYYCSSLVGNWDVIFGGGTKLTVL :: 0.008

Identify IC50 (µg/mL), pseudovirus neutralization associated with the binder PGT-125 (5123_A06) (antibody, V domains shown) VH: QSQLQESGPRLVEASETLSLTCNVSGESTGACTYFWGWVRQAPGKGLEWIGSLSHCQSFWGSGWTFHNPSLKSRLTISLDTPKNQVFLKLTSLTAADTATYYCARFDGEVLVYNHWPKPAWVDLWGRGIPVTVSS VL: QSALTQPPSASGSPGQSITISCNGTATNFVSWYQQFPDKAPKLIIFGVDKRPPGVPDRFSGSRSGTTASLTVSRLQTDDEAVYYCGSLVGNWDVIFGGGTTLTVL
0.008
